Molecular target: furin, P09958;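 also: purified furin at 1:10 enzyme:substrate in 50 mM HEPES pH 7.5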
Sequence (P09958 whole entry): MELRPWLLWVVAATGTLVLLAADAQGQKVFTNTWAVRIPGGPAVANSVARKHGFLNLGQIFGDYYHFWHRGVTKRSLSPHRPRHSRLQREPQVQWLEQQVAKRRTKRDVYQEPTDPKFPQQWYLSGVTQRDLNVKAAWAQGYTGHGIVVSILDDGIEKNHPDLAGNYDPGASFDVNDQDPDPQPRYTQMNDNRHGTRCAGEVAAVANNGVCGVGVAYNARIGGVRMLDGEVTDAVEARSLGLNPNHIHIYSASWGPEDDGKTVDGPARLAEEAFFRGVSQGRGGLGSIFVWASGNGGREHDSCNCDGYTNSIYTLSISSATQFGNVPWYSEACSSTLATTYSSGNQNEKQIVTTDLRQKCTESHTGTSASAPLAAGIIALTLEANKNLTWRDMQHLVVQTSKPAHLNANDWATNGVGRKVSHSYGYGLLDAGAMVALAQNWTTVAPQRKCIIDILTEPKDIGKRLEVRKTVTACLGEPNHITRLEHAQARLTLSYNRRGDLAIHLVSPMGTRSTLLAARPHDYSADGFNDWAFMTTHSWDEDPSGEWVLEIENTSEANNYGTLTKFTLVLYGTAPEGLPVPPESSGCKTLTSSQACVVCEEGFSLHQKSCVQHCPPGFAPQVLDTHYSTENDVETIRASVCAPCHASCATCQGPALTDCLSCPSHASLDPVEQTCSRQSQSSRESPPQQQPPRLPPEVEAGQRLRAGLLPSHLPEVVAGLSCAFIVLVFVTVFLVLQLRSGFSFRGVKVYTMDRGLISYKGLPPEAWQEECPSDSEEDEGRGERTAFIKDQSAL
Assay: furin cleavage Z-score vs untreated control; higher = more cleavage, active = 3.5 or more, inactive = 1 or less, 8 variable residues between constant flanks
Conditions: 30 min
This is one part of the list. The hit rate among all sequences tested is not known here.
quantityKind: furin cleavage Z-score

Some entries whose results are on file:
*Q* Consider the sequence CAEVVTHTWVAGNASASA [HC149] . State its measured furin cleavage Z-score.
*A* 0.597 (inactive)

*Q* Consider the sequence CALSPRPISYAGNASASA [HC737] . State its measured furin cleavage Z-score.
*A* 0.915 (inactive)

*Q* Consider the sequence CAGDKELRTGAGNASASA [EK10] . State its measured furin cleavage Z-score.
*A* -0.0871 (inactive)

*Q* Consider the sequence CAVSPRVKRPAGNASASA [FS-1104] . State its measured furin cleavage Z-score.
*A* -0.559 (inactive)

*Q* Consider the sequence CAGDKRVKRRAGNASASA [FS-159] . State its measured furin cleavage Z-score.
*A* 8.22 (active)

Others:
*Q* Consider the sequence CAVHVRIRRDAGNASASA [FS-1428] . State its measured furin cleavage Z-score.
*A* 11.3 (active)

*Q* Consider the sequence CALSPRTFHPAGNASASA [TR5] . State its measured furin cleavage Z-score.
*A* -0.959 (inactive)

Hey, just so you know, these numbers are from the supplement of paper PMC3545927.
